Data provenance is ChEMBL document CHEMBL1125853.

# test-target: Angiotensin-converting enzyme (Homo sapiens)
# Sequence (P12821 whole entry): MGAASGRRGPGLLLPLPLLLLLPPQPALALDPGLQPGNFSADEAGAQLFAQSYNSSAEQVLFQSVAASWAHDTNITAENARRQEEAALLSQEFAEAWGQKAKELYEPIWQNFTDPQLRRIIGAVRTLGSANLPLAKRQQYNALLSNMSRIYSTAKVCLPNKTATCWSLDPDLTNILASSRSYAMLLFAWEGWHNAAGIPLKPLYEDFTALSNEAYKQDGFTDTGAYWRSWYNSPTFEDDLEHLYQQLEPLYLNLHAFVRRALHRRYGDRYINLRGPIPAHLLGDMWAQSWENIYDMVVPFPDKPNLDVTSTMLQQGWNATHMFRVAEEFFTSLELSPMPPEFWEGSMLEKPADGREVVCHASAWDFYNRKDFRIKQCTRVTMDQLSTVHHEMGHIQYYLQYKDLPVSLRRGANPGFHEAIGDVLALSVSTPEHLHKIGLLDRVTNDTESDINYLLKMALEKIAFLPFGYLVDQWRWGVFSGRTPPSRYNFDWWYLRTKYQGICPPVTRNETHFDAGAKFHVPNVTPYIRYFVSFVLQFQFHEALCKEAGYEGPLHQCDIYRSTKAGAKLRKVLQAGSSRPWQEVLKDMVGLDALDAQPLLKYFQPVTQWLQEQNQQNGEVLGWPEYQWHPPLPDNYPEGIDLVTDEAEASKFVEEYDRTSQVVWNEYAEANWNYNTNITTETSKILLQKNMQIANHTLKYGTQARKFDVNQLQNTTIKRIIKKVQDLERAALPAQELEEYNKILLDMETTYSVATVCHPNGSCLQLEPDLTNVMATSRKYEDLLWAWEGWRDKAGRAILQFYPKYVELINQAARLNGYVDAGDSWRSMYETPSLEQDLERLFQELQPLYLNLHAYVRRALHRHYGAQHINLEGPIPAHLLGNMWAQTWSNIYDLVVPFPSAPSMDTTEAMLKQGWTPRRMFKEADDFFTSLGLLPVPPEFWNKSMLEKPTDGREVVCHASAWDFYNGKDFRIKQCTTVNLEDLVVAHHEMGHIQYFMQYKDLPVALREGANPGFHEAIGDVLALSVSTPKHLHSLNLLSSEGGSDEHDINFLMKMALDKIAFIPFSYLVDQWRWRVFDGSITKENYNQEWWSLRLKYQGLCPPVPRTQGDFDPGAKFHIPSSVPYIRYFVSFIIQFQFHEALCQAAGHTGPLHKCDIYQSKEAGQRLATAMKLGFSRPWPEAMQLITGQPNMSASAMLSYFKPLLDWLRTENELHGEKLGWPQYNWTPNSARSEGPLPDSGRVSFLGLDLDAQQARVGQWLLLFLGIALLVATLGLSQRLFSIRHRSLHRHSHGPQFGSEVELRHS
metric-name: Ki (nM)
Numeric answer only, unit nM assumed.

So what Ki did O=C(O)CN1Cc2ccccc2CC(N[C@H](CCc2ccccc2)C(=O)O)C1=O (stereo partly specified) get with Angiotensin-converting enzyme (Homo sapiens)?
10
